Molecular target: His-His-(EK)-hsBCLXL(2-197)[N197C] (Homo sapiens (Human), UniProt Q07817, N197C)
Sequence (Q07817 2-197 N197C): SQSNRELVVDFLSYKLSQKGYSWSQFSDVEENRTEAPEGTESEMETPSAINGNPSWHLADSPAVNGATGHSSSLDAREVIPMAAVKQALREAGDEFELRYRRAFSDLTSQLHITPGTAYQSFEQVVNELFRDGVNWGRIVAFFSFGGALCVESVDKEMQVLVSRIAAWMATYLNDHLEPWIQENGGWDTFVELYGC
Assay: Fluorescence quenching assay
Settings: 1 nM Cy5-labelled protein, 400 nM PUMA peptide, 2 hours at 23° C.; KI determined from IC50
Source text: Fluorescence quenching assay measures the change in fluorescence intensity of C-terminally Cy5-labelled BCL-xL protein, His-His-(EK)-hsBCLXL(2-197)[N197C] (UniProtKB® […] The addition of a compound which binds competitively to the same site as the peptide will result in an increase in the fluorescence intensity of the protein due to displacement of the fluorescence quencher. […]
Reported values of pKi for individual entries
Recall that pKi is obtained by taking minus log10 of the concentration measured in molar.

[[record]]
compound = "Cc1c(Nc2nc3ccccc3s2)nnc2c1CCCN2c1nc(C(=O)O)c(CCCOc2ccc(C#CCNCC[N+](C)(C)CCCS(=O)(=O)[O-])cc2F)s1 [Example 54]"
endpointresult = 11.92


// below: pKi requested for another compound
Problem: Please give the measured pKi for this compound: Cc1c(Nc2nc3cc(O)ccc3s2)nnc2c1CCCN2c1ccc(-c2cnn(CC34CC5(C)CC(C)(C3)CC(OCCN3CCCC3)(C5)C4)c2C)c(C(=O)O)n1 [Example 152]
Solution: 11.77

###

Target: His-His-(EK)-hsBCLXL(2-197)[N197C] (Homo sapiens (Human), UniProt Q07817, N197C)
Assay: Fluorescence quenching assay
Conditions: 1 nM Cy5-labelled protein, 400 nM PUMA peptide, 2 hours at 23° C.; KI determined from IC50
From the text: Fluorescence quenching assay measures the change in fluorescence intensity of C-terminally Cy5-labelled BCL-xL protein, His-His-(EK)-hsBCLXL(2-197)[N197C] (UniProtKB® […] The addition of a compound which binds competitively to the same site as the peptide will result in an increase in the fluorescence intensity of the protein due to displacement of the fluorescence quencher. […]
Please note: Ki exactly at 2 pM is no. Only values below 2 pM get yes.

[[record]]
compound = "Cc1c(Nc2nc3ccccc3s2)nnc2c1CCCN2c1ccc(-c2cnn(CC34CC5CC(CC(C5)C3)C4)c2C)c(C(=O)O)n1"
qualitativelabel = "no"


--- query ---
Problem: Dear colleague, could you confirm whether Ki of Cc1c(Nc2nc3ccccc3s2)nnc2c1CCCN2c1nc(C(=O)O)c(CCCOc2ccc(N3CCN(C)CC3)cc2F)s1 falls below 2 pM? Thanks.
Solution: no

###

Tested on: MOLT-4 cells
Test: MOLT-4 cell viability using MTT assay
Format: cell-based
Settings: 48 h exposure
assayReadout: IC50 (nM)
Give the value, in units of nM, as a plain number.

[[record]]
molecule = "Cc1c(Nc2nc3ccccc3s2)nnc2c1CCCN2c1ccc(-c2cnn(CC34CC5(C)CC(C)(C3)CC(OCCNCCC(O)CO)(C5)C4)c2C)c(C(=O)O)n1 (stereo in doubt) [Example 92]"
assayreadout = "IC50"
resultunit = "nM"
endpointresult = 4.58


Problem: Please give the measured IC50 for this molecule: Cc1c(Nc2nc3ccccc3s2)nnc2c1CCCN2c1ccc(-c2cnn(CC34CC5(C)CC(C)(C3)CC(OCCNCC[C@@H](O)CO)(C5)C4)c2C)c(C(=O)O)n1 [Example 93]
Solution: 14.2

###

Target: His-His-(EK)-hsBCLXL(2-197)[N197C] (Homo sapiens (Human), UniProt Q07817, N197C)
Test: Fluorescence quenching assay
Assay type: binding
Details: 1 nM Cy5-labelled protein, 400 nM PUMA peptide, 2 hours at 23° C.; KI determined from IC50
Reported values of Ki for individual entries
Give the value, in units of pM, as a plain number.

[[record]]
structurestring = "Cc1c(Nc2nc3ccccc3s2)nnc2c1CCCN2c1nc(C(=O)O)c(CCCOc2ccc(C#CCN(C)C)cc2Br)s1"
testtarget = "His-His-(EK)-hsBCLXL(2-197)[N197C] (Homo sapiens (Human), UniProt Q07817, N197C)"
endpointresult = 23


Problem: Please give the measured Ki for this compound: Cc1c(Nc2nc3ccccc3s2)nnc2c1CCCN2c1nc(C(=O)O)c(CCCOc2ccc(C#CCN(CC(C)C)CC(C)C)cc2F)s1
Solution: 44

Problem: Please give the measured Ki for this compound: Cc1c(Nc2nc3ccccc3s2)nnc2c1CCCN2c1ccc(-c2cnn(CC34CC5(C)CC(C)(C3)CC(OCCN(CCCCO)CCCCO)(C5)C4)c2C)c(C(=O)O)n1
Solution: 3.2

Problem: Please give the measured Ki for this compound: Cc1ccc2sc(Nc3nnc4c(c3C)CCCN4c3ccc(-c4cnn(CC56CC7(C)CC(C)(C5)CC(OCCN5CCCC5)(C7)C6)c4C)c(C(=O)O)n3)nc2c1
Solution: 2.9

Problem: Please give the measured Ki for this compound: Cc1c(Nc2nc3ccccc3s2)nnc2c1CCCN2c1ccc(-c2cnn(CC34CC5(C)CC(C)(CC(CCCN6CCN(C)CC6)(C5)C3)C4)c2C)c(C(=O)O)n1
Solution: 2.9

###

Target: His-His-(EK)-hsBCLXL(2-197)[N197C] (Homo sapiens (Human), UniProt Q07817, N197C)
Test: Fluorescence quenching assay
Type: binding
Conditions: 1 nM Cy5-labelled protein, 400 nM PUMA peptide, 2 hours at 23° C.; KI determined from IC50
assayReadout: Ki (pM)
Give the value, in units of pM, as a plain number.

Example results:
[[record]]
molecule = "Cc1c(Nc2nc3ccccc3s2)nnc2c1CCCN2c1nc(C(=O)O)c(CCCOc2ccc(C#CCN3CCCC(F)(F)C3)cc2F)s1 [Example 50]"
assayreadout = "Ki"
resultunit = "pM"
endpointresult = 71

[[record]]
molecule = "Cc1c(Nc2nc3ccccc3s2)nnc2c1CCCN2c1ccc(-c2cnn(CC34CC5(C)CC(C)(C3)CC(OCCN3CCCCC3)(C5)C4)c2C)c(C(=O)O)n1 [Example 143]"
assayreadout = "Ki"
resultunit = "pM"
endpointresult = 1.4

[[record]]
molecule = "Cc1c(Nc2nc3ccccc3s2)nnc2c1CCCN2c1nc(C(=O)O)c(CCCOc2ccc(CCCN3C[C@@H]4[C@H](C3)C4(F)F)cc2F)s1 [Example 72]"
assayreadout = "Ki"
resultunit = "pM"
endpointresult = 80

[[record]]
molecule = "CNCCN[C@@H]1Cc2c(nnc(Nc3nc4ccccc4s3)c2C)N(c2nc(C(=O)O)c(CCCOc3ccc(CCCN(C)C)cc3F)s2)C1 [Example 39]"
assayreadout = "Ki"
resultunit = "pM"
endpointresult = 9.8

[[record]]
molecule = "CNCCOC12CC3(C)CC(C)(CC(Cn4ncc(-c5ccc(N6CCCc7c6nnc(Nc6nc8ccccc8s6)c7C)nc5C(=O)O)c4C)(C3)C1)C2 [Example 94]"
assayreadout = "Ki"
resultunit = "pM"
endpointresult = 1.5


Problem: Please give the measured Ki for this molecule: Cc1c(Nc2nc3ccccc3s2)nnc2c1CCCN2c1nc(C(=O)O)c(CCCOc2cc(C#CCN(C)C)ccc2F)s1 [Example 78]
Solution: 23

Problem: Please give the measured Ki for this molecule: CNCC#Cc1ccc(OCCCc2sc(N3CCCc4c3nnc(Nc3nc5ccccc5s3)c4C)nc2C(=O)O)cc1 [Example 80]
Solution: 6.5

Problem: Please give the measured Ki for this molecule: Cc1c(Nc2nc3ccccc3s2)nnc2c1CCCN2c1nc(C(=O)O)c(CCCOc2ccc(C#CCN(C)C)cc2Cl)s1 [Example 51]
Solution: 12

Problem: Please give the measured Ki for this molecule: Cc1c(Nc2nc3ccccc3s2)nnc2c1CCCN2c1nc(C(=O)O)c(CCCOc2ccc(C#CC(C)N3CCN(C)CC3)cc2F)s1 (centres unmarked) [Example 41]
Solution: 2.5

Problem: Please give the measured Ki for this molecule: Cc1c(Nc2nc3ccccc3s2)nnc2c1CCCN2c1ccc(-c2cnn(CC34CC5(C)CC(C)(C3)CC(OCCNC(CO)CO)(C5)C4)c2C)c(C(=O)O)n1 [Example 135]
Solution: 1.8

Problem: Please give the measured Ki for this molecule: Cc1c(Nc2nc3ccccc3s2)nnc2c1CCCN2c1nc(C(=O)O)c(CCCOc2ccc(CCCN3CCCCC3)cc2F)s1 [Example 71]
Solution: 4.5

Problem: Please give the measured Ki for this molecule: Cc1c(Nc2nc3ccccc3s2)nnc2c1CCCN2c1ccc(-c2cnn(CC34CC5(C)CC(C)(C3)CC(OCCN3CCCC3)(C5)C4)c2C)c(C(=O)O)n1 [Example 127]
Solution: 2.1

Problem: Please give the measured Ki for this molecule: Cc1c(Nc2nc3ccccc3s2)nnc2c1CCCN2c1nc(C(=O)O)c(CCCOc2ccc(CCCN3CCCC3)cc2F)s1 [Example 69]
Solution: 3.7

Problem: Please give the measured Ki for this molecule: CCNC(C)(C)C#Cc1ccc(OCCCc2sc(N3CCCc4c3nnc(Nc3nc5ccccc5s3)c4C)nc2C(=O)O)c(F)c1 [Example 102]
Solution: 4.5

###

Target: His-His-(EK)-hsBCLXL(2-197)[N197C] (Homo sapiens (Human), UniProt Q07817, N197C)
Assay: Fluorescence quenching assay
Details: 1 nM Cy5-labelled protein, 400 nM PUMA peptide, 2 hours at 23° C.; KI determined from IC50
assayReadout: pKi
Recall that pKi is obtained by taking minus log10 of the concentration measured in molar.

Example results:
[[record]]
molecule = "CN(C)CC#Cc1ccc(OCCCc2sc(N3CCCc4c3nnc(Nc3nc5ccccc5s3)c4C3CC3)nc2C(=O)O)c(F)c1 [Example 30]"
testtarget = "His-His-(EK)-hsBCLXL(2-197)[N197C] (Homo sapiens (Human), UniProt Q07817, N197C)"
endpointresult = 11.44

[[record]]
molecule = "Cc1c(Nc2nc3ccccc3s2)nnc2c1CCCN2c1nc(C(=O)O)c(CCCOc2ccc(C#CC(C)(C)N(C)C)cc2F)s1 [Example 83]"
testtarget = "His-His-(EK)-hsBCLXL(2-197)[N197C] (Homo sapiens (Human), UniProt Q07817, N197C)"
endpointresult = 10.59


Problem: Please give the measured pKi for this molecule: Cc1c(Nc2nc3ccccc3s2)nnc2c1CCCN2c1ccc(-c2cnn(CC34CC5(C)CC(C)(C3)CC(OCCNCC[C@@H](O)CO)(C5)C4)c2C)c(C(=O)O)n1 [Example 93]
Solution: 11.62

Problem: Please give the measured pKi for this molecule: CNC(C)(C)C#Cc1ccc(OCCCc2sc(N3CCCc4c3nnc(Nc3nc5ccccc5s3)c4C)nc2C(=O)O)c(F)c1 [Example 91]
Solution: 11.24
